# subjectOfTest: UniProt:O15455
# Sequence (O15455 whole entry): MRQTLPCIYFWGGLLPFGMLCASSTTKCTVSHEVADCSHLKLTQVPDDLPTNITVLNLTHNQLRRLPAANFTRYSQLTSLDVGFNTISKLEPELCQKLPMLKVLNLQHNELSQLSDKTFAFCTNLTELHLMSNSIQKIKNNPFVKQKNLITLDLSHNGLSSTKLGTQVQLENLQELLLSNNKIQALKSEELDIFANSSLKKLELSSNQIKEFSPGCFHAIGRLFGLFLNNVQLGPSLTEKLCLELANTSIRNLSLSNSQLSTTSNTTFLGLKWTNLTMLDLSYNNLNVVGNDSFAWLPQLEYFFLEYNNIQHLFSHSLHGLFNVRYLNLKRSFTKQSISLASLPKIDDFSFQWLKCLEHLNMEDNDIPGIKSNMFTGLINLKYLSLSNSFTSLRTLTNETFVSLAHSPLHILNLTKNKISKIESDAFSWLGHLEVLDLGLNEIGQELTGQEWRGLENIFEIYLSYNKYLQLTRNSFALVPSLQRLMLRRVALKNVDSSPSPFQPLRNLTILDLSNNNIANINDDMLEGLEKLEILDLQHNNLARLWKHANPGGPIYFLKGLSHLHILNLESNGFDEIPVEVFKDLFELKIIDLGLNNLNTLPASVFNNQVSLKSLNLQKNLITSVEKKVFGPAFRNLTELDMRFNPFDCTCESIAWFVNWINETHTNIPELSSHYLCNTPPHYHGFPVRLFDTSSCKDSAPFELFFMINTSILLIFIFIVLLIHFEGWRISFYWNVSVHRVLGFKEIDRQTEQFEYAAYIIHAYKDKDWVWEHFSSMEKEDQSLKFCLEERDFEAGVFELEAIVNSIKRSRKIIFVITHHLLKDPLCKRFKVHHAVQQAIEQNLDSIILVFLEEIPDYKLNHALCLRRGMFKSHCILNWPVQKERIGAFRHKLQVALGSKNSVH
# experimentalProtocol: Antagonist activity at […] stimulated human TRL3 overexpressed in HEK293 cells assessed as inhibition of NF kappa B/Ap-1 activation preincubated with compound for 30 mins followed by […] stimulation measured after 22 hrs by SEAP reporter assay
measuredEndpoint: IC50

Query :: Item under review: `Cc1cc(-c2[nH]c3ccc(C4CCNCC4)cc3c2C(C)C)cc(C)n1` . Reported IC50?
Result :: > 10 µM

* * *

# subjectOfTest: Toll-like receptor 7 (Homo sapiens, UniProt Q9NYK1)
# Sequence (Q9NYK1 whole entry): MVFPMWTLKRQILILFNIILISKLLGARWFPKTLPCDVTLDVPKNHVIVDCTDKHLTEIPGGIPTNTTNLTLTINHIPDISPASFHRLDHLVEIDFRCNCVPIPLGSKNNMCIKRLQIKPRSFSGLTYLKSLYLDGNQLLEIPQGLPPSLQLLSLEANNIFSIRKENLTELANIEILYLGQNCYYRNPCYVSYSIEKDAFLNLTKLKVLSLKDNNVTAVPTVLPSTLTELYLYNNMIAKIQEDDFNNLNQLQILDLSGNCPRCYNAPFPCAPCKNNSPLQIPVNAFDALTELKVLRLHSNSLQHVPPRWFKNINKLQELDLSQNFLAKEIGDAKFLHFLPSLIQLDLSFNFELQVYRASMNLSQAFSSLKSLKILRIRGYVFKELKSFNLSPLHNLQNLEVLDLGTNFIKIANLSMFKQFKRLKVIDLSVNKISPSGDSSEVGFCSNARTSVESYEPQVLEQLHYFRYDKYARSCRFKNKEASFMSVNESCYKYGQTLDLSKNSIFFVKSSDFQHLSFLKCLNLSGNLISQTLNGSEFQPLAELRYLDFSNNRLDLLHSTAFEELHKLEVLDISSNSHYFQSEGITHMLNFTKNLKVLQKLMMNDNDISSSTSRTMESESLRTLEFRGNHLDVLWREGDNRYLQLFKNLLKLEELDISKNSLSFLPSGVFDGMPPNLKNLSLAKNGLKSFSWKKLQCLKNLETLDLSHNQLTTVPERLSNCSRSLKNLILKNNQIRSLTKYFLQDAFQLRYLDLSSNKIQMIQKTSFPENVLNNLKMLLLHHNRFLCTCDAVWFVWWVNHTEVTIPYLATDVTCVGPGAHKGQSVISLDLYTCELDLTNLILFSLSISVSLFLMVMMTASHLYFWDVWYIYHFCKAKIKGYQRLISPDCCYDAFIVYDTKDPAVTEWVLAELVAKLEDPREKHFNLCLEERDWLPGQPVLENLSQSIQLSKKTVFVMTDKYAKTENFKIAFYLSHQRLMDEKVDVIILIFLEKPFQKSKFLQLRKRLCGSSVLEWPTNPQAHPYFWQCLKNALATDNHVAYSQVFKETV
# experimentalProtocol: Antagonist activity at gardiquimod stimulated human TRL7 overexpressed in HEK293 cells assessed as inhibition of NF kappa B/Ap-1 activation preincubated with compound for 30 mins followed by gardiquimod stimulation measured after 22 hrs by SEAP reporter assay
# Format: cell-based
measuredEndpoint: log10 of IC50 (log10 of the value in nM)
Hey, these are logged values: log10 of IC50, nM being the unit before logging.

Worked cases, answers included:
>  <smilesNotation>
Cc1cc(-c2[nH]c3cc(F)c(C4CCNCC4)cc3c2C(C)C)ccn1

>  <subjectOfTest>
Toll-like receptor 7 (Homo sapiens, UniProt Q9NYK1)

>  <result>
-0.10

$$$$
>  <smilesNotation>
Cc1nc(C)c(C)c(-c2[nH]c3ccc(C4CCNCC4)cc3c2C(C)C)c1C

>  <subjectOfTest>
Toll-like receptor 7 (Homo sapiens, UniProt Q9NYK1)

>  <result>
2.48

$$$$
>  <smilesNotation>
CC(C)c1c(-c2ccncc2)[nH]c2ccc(C3CCNCC3)cc12

>  <subjectOfTest>
Toll-like receptor 7 (Homo sapiens, UniProt Q9NYK1)

>  <result>
1.46

$$$$
>  <smilesNotation>
COc1cc(-c2[nH]c3ccc(C4CCNCC4)cc3c2C(C)C)cc(C)n1

>  <subjectOfTest>
Toll-like receptor 7 (Homo sapiens, UniProt Q9NYK1)

>  <result>
0.28

$$$$
>  <smilesNotation>
COc1cc(-c2[nH]c3ccc(C4CCNCC4)cc3c2C(C)C)ccn1

>  <subjectOfTest>
Toll-like receptor 7 (Homo sapiens, UniProt Q9NYK1)

>  <result>
1.87

$$$$
>  <smilesNotation>
Cc1cc(-c2[nH]c3cc(C)c(C4CCNCC4)cc3c2C(C)C)ccn1

>  <subjectOfTest>
Toll-like receptor 7 (Homo sapiens, UniProt Q9NYK1)

>  <result>
0.91

$$$$
>  <smilesNotation>
Cc1nccc(-c2[nH]c3ccc(C4CCNCC4)cc3c2C(C)C)c1C

>  <subjectOfTest>
Toll-like receptor 7 (Homo sapiens, UniProt Q9NYK1)

>  <result>
1.45

$$$$
>  <smilesNotation>
Cc1cc(-c2[nH]c3ccc(C4CCNCC4)cc3c2C(C)C)cc(C2CC2)n1

>  <subjectOfTest>
Toll-like receptor 7 (Homo sapiens, UniProt Q9NYK1)

>  <result>
1.34

$$$$
>  <smilesNotation>
CCc1c(-c2ccnc(C)c2)[nH]c2ccc(C3CCNCC3)cc12

>  <subjectOfTest>
Toll-like receptor 7 (Homo sapiens, UniProt Q9NYK1)

>  <result>
1.38

$$$$
>  <smilesNotation>
Cc1cc(-c2[nH]c3cc(C(F)(F)F)c(C4CCNCC4)cc3c2C(C)C)ccn1

>  <subjectOfTest>
Toll-like receptor 7 (Homo sapiens, UniProt Q9NYK1)

>  <result>
1.23

$$$$

Query :: Item under review: `CCc1c(-c2ccnc(C)c2)[nH]c2cc(F)c(C3CCNCC3)c(F)c12` . Reported log10 of IC50?
Result :: 1.11

Query :: Item under review: `CC(C)c1c(-c2ccnc(C3CC3)c2)[nH]c2ccc(C3CCNCC3)cc12` . Reported log10 of IC50?
Result :: 1.96

Query :: Item under review: `Cc1cc(-c2[nH]c3ccc(C4CCNCC4)c(F)c3c2C(C)C)cc(C)n1` . Reported log10 of IC50?
Result :: -0.05

Query :: Item under review: `CC(C)c1c(-c2ccncc2CO)[nH]c2ccc(C3CCNCC3)cc12` . Reported log10 of IC50?
Result :: 2.30

Query :: Item under review: `CNCCN1CCC(c2ccc3[nH]c(-c4cncc(OC)c4)c(C)c3c2)CC1` . Reported log10 of IC50?
Result :: 3.52

Query :: Item under review: `CCc1cc(-c2[nH]c3ccc(C4CCNCC4)cc3c2C(C)C)cc(C)n1` . Reported log10 of IC50?
Result :: 1.76

Query :: Item under review: `CCc1c(-c2ccnc(C)c2)[nH]c2ccc(C3CCNCC3)c(C)c12` . Reported log10 of IC50?
Result :: 1.15
